Tested on: linoleate isomerase from Clostridium sporogenes
Procedure Text: C. sporogenes linoleate isomerase kinetic assay, absorbence at 234 nm, partially purified enzyme
Format: biochemical
Run Parameters: compound as substrate
Readout Kind: Vmax (nmole/min/mg protein)
The figure you give is taken to be in nmole/min/mg protein; do not add the unit.

stdin: Which measured Vmax value corresponds to CCCCC/C=C\C/C=C\CCCCCCCC(=O)O [linoleic acid, (cis, cis)-9, 12-octadecadienoic acid] ?
stdout: 350

stdin: Which measured Vmax value corresponds to CCCCC/C=C\C/C=C\C/C=C\CCCCC(=O)O ?
stdout: 236

stdin: Which measured Vmax value corresponds to CC/C=C\C/C=C\C/C=C\CCCCCCCC(=O)O ?
stdout: 811

stdin: Which measured Vmax value corresponds to CC/C=C\C/C=C\C/C=C\C/C=C\CCCCC(=O)O ?
stdout: 204

---

Assay Target: linoleate isomerase from Clostridium sporogenes
Procedure Text: C. sporogenes linoleate isomerase kinetic assay, absorbence at 234 nm, partially purified enzyme
Run Parameters: inhibition of linoleic acid isomerization; calculated from secondary plots; read-out: inhibition constants (Ki)
Readout Kind: Ki (µM)
The figure you give is taken to be in µM; do not add the unit.

stdin: Which measured Ki value corresponds to CCCCCCCC/C=C\CCCCCCCC(=O)O [oleic acid, (cis)-9 octadecenoic acid] ?
stdout: 23.8

stdin: Which measured Ki value corresponds to CCCCCC/C=C\CCCCCCCC(=O)O [palmitoleic acid, (cis)-9 hexadecenoic acid] ?
stdout: 33.1

---

Tested on: linoleate isomerase from Clostridium sporogenes
Procedure Text: C. sporogenes linoleate isomerase kinetic assay, absorbence at 234 nm, partially purified enzyme
Type: biochemical
Run Parameters: substrate concentration dependency of isomerization
Give measured substrate has an inhibitory effect at concentrations above for each item. Keep answers brief.

stdin: Form field: substrate has an inhibitory effect at concentrations above recorded for CCCCC/C=C\C/C=C\C/C=C\CCCCC(=O)O with linoleate isomerase from Clostridium sporogenes (enter value)
stdout: > 15 µM

stdin: Form field: substrate has an inhibitory effect at concentrations above recorded for CC/C=C\C/C=C\C/C=C\CCCCCCCC(=O)O with linoleate isomerase from Clostridium sporogenes (enter value)
stdout: > 40 µM

stdin: Form field: substrate has an inhibitory effect at concentrations above recorded for CC/C=C\C/C=C\C/C=C\C/C=C\CCCCC(=O)O with linoleate isomerase from Clostridium sporogenes (enter value)
stdout: > 120 µM

---

Test system: linoleate isomerase from Clostridium sporogenes
Procedure Text: C. sporogenes linoleate isomerase kinetic assay, absorbence at 234 nm, partially purified enzyme
Assay type: biochemical
Run Parameters: isomerization of (cis, cis, cis, cis)-6, 9, 12, 15 octadecatetraenoic acid 20 PPM; cofactor 50 μM, DTT 1 mM
Readout Kind: Activity (nmol/min)
The figure you give is taken to be in nmol/min; do not add the unit.

stdin: Which measured Activity value corresponds to O[C@H](CS)[C@H](O)CS (racemic) ?
stdout: 5.9

stdin: Which measured Activity value corresponds to CC(C)(COP(=O)(O)OP(=O)(O)OC[C@H]1O[C@@H](n2cnc3c(N)ncnc32)[C@H](O)[C@@H]1OP(=O)(O)O)[C@@H](O)C(=O)NCCC(=O)NCCS ?
stdout: 6.5

stdin: Which measured Activity value corresponds to Nc1ncnc2c1ncn2[C@@H]1O[C@H](COP(=O)(O)OP(=O)(O)OP(=O)(O)O)[C@@H](O)[C@H]1O ?
stdout: 6.1

stdin: Which measured Activity value corresponds to NC(=O)C1=CN([C@@H]2O[C@H](COP(=O)(O)OP(=O)(O)OC[C@H]3O[C@@H](n4cnc5c(N)ncnc54)[C@H](OP(=O)(O)O)[C@@H]3O)[C@@H](O)[C@H]2O)C=CC1 ?
stdout: 6.3
